- assay-procedure: qHTS assay for identifying genotoxic compounds that show differential cytotoxicity against isogenic chicken DT40 cell lines with known DNA damage response pathways - Rad54/Ku70 mutant cell line (AID 743015); also: nearly all actives have a fitted effect of over 60% in size
- test-parameters: DT40 Rad54/Ku70 mutant viability, CellTiter-Glo, 40 h; series mostly up to 66.8 µM
Results filed as inconclusive are left out. Calls of active or inactive are those of the source. Calls follow the shape of the dose curve; as a rule, active = well fitted cell-killing curve with a large enough effect in the repeat runs; inconclusive = weak or mixed curves; inactive = no such curve, though single readings can be large or run the other way.
Write down one outcome, taken from active, inactive

## Task Call for entry `Cc1cc(C(=O)O)ccc1[N+](=O)[O-]` :
## Result inactive

## Task Call for entry `CCCCCCCC/C=C\CCCCCCCC(=O)OCC` :
## Result inactive

## Task Call for entry `CC(C)(COC(=O)c1ccccc1)COC(=O)c1ccccc1` :
## Result active

## Task Call for entry `O=[N+]([O-])c1ccc2[nH]ncc2c1` :
## Result inactive

## Task Call for entry `c1ccc(-c2ccccn2)nc1` :
## Result active

Field: next compound
## Task Call for entry COc1cc2nc(N(C)CCCNC(=O)C3CCCO3)nc(N)c2cc1OC (configuration not stated) :
## Result inactive

----------
- assay-procedure: A CellTox Green Cytotoxicity Assay to monitor cytotoxicity in HepG2 cells - 24 hour (AID 1224878); also: % is scaled to controls: 0 for no effect and ±100 for the full control effect; nearly all actives have a fitted effect of over 45% in size
- test-parameters: CellTox Green fluorescence; series mostly up to 76.8 µM
Inconclusive results are not listed. The source made the active and inactive calls. Calls follow the shape of the dose curve; as a rule, active = well fitted activation curve with a large enough effect in the repeat runs; inconclusive = weak or mixed curves; inactive = flat fitted curve, though single readings scatter.
Write down one outcome, taken from yes (1) for active, no (0) for inactive

## Task Call for entry C[C@@H](c1ncncc1F)C(O)(Cn1cncn1)c1ccc(F)cc1F (stereo not given in full) :
## Result no (0)

## Task Call for entry `Cc1ncc(CO)c(C=O)c1O` :
## Result no (0)

## Task Call for entry `O=P(O)(OCc1ccccc1)OCc1ccccc1` :
## Result no (0)

## Task Call for entry `CCOC(=O)c1cccnc1` :
## Result no (0)

Field: next molecule
## Task Call for entry `CC(C)O.CC(C)O.CCOC(=O)/C=C(\C)O.CCOC(=O)/C=C(\C)O.[Ti]` :
## Result no (0)

----------
- assay-target: Nuclear receptor ROR-gamma (Homo sapiens) (UniProt P51449)
- assay-procedure: qHTS assay to identify small molecule antagonists of the retinoid-related orphan receptor gamma (ROR-gamma) signaling pathway (AID 1159521; also: nearly all actives have a fitted effect of over 50% in size)
- test-parameters: Tet-on RORgamma CHO cells, RORE-luciferase, 16 h; series mostly up to 92.4 µM
Inconclusive results are not listed. Activity calls are given as the source filed them. The call rests on the fitted dose curve; in most records, active means well fitted inhibition curve with a large enough effect in the repeat runs; inconclusive means weak or mixed curves, or effect the other way; inactive means no such curve, though single readings can be large or run the other way.
Write down one outcome, taken from active, inactive

## Task Call for entry `CN(Cc1ccc(C(C)(C)C)cc1)Cc1cccc2ccccc12` :
## Result inactive

***
## Task Call for entry `CCCCCCOC(=O)NC(=N)c1ccc(NCc2nc3cc(C(=O)N(CCC(=O)OCC)c4ccccn4)ccc3n2C)cc1` :
## Result active

## Task Call for entry `CCCOC(C(=O)OC1CCN(C)CC1)(c1ccccc1)c1ccccc1` :
## Result active

----------
- assay-procedure: qHTS assay to identify small molecule phospholipidosis (PLD) inducers (AID 1259344); also: % is scaled to controls: 0 for no effect and ±100 for the full control effect
- test-parameters: HepG2 phospholipidosis, LipidTOX Red imaging, 24 h; series mostly up to 38.3 µM
Results filed as inconclusive are left out. The source made the active and inactive calls. The call rests on the fitted dose curve; in most records, active means well fitted activation curve with a large enough effect; inconclusive means small, poorly fitted or top-dose-only effect; inactive means flat fitted curve, though single readings scatter.
reported-property: PLD induction

## Task Any idea what PLD induction was measured for CCCCC/C=C\C/C=C\CCCCCCCC(=O)NC(C)c1ccccc1 (centres undefined) ?
## Result -2.94% [at 7.66 µM] (inactive)

## Task Any idea what PLD induction was measured for `O=C1C(O)=C(O)C(=O)C(O)=C1O` ?
## Result inactive

## Task Any idea what PLD induction was measured for `CCO[C@H](Cc1ccc(OCCc2ccc(OS(C)(=O)=O)cc2)cc1)C(=O)O` ?
## Result inactive

## Task Any idea what PLD induction was measured for `CCCn1cnc2c1c(=O)n(CCCCC(C)=O)c(=O)n2C` ?
## Result inactive
